Test system: SNB-75 CNS
Assay: NCI tumour cell line growth inhibition, 48 h
Provide the reported TGI of each item.

Could you share which TGI value was measured for OCC1OC(N2CCN(C3OC(CO)C(O)C(O)C3O)CC2)C(O)C(O)C1O (stereo unspecified) ?
> 100 µM

I am curious: what TGI value has been reported for Cc1ccc(S(=O)(=O)N(CC(O)COc2ccccc2)c2ccccc2Cl)cc1 (stereo unspecified) ?
41.7 µM

What measured TGI goes with `Oc1ccccc1-c1cnnc(-c2ccccc2O)c1` ?
51.6 µM

Requested field: TGI. Item: `CS(=O)(=O)Nc1cc(-c2ccc3ncnc(Nc4ccc(OCc5ccccn5)c(Cl)c4)c3c2)cnc1Cl`
0.797 µM

Value lookup for TGI; key = `Nc1nc(Cl)cc(OCC2(CO)CCCCC2)n1`
> 100 µM

I would be grateful if you could share the reported TGI for `Nc1ncnc2c1ncn2Cc1ccc(CCl)cc1` .
62.6 µM

Which TGI reading was recorded for the compound `CCn1c(C)nc([N+](=O)[O-])c1Sc1ncc[nH]1` ?
> 100 µM

Find the recorded TGI belonging to OCC1OC(n2cnc3cc(Cl)c(Cl)cc32)C(O)C1O (stereo unspecified) and report it.
> 74.2 µM

Reported TGI for `Cc1ccc(O)c(C(=O)/C=C/c2ccccc2)c1` : what is it?
> 100 µM

Which TGI value is on record for CC(=O)OC1CC[C@@]2(C)C(=CC[C@@H]3[C@@H]2CC[C@]2(C)Nc4c(cnn4-c4ccc(F)cc4)C[C@@H]32)C1 (stereo partly specified) ?
66.5 µM

// TGI lookup, key: `Clc1ccc(Nc2nnc(COc3ccccc3)c3ccccc23)cc1`
6.65 µM

Tell me the measured TGI of CCN(CC)CCNC(=O)C1COc2ccc(-c3cc(=O)c4ccccc4o3)cc2O1 (stereo unspecified) , please.
42.7 µM

// lookup TGI for CC#CC#C/C=C1/C=CC2(CCCCO2)O1 (stereo unspecified)
> 100 µM

TGI lookup needed for `CCCC(CCC(=O)O)(CCC(=O)O)[N+](=O)[O-]` , thanks.
> 100 µM

Which TGI value belongs to `CC(C)Cc1cc(-c2cccn2C)c(C#N)c(=O)[nH]1` ?
> 100 µM

Can you share its TGI? I mean this compound: `COc1cccc(/C=C/C(=O)c2cc3c(N)c(C(=O)Nc4ccccc4)sc3nc2C)c1`
> 50 µM

What measured TGI goes with `O=C(NC1CCCCC1)N1CCNC1=S` ?
> 100 µM

Fill in the blank: the reported TGI of C[C@H]1O[C@@H](O[C@H]2[C@@H](O)C[C@H](O[C@H]3[C@@H](O)C[C@H](O[C@H]4CC[C@]5(C)C6CC[C@]7(C)[C@@H](C8=CC(=O)OC8)CC[C@]7(O)C6CC[C@@H]5C4)O[C@@H]3C)O[C@@H]2C)C[C@H](O)[C@@H]1O (stereo partly specified) is ____.
0.102 µM

Item under review: COc1ccc(C2[C@@H](Cl)C(=O)N2c2ccc(OC)cc2)cc1 (stereo partly specified) . Reported TGI?
64.1 µM

So what's the measured TGI for this one? O=C1C2=C(c3ccccc31)C(c1ccc([N+](=O)[O-])cc1)NC(=S)N2 (stereo unspecified)
98.6 µM

I am curious: what TGI value has been reported for CCOP(=O)(OCC)C(Cc1cn(S(=O)(=O)c2ccc(C)cc2)cn1)C(=O)O (stereo unspecified) ?
> 100 µM
